target: MMP-13CD (catalytic domain of collagenase 3) (Homo sapiens, UniProt P45452); assay: Thiopeptolide hydrolysis assay, MMP-13; conditions: MMP13 IC50 (nM), Table II;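 further: inhibition of enzymatic thiopeptolide substrate cleavage (100 µM) in pH 6.0 MES buffer with CaCl2 and DTNB, comparing hydrolysis with versus without inhibitor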
assay_metric: IC50 (nM)

{"molecule": "COc1ccc(CNC(=O)c2ccc(OC)c(C(=O)NCc3ccc(OC)cc3)c2)cc1", "experimental_system": "MMP-13CD (catalytic domain of collagenase 3) (Homo sapiens, UniProt P45452)", "IC50 (nM)": 280}
{"molecule": "COc1cccc(CNC(=O)c2cccc(C(=O)NCc3ccc(C(=O)O)cc3)c2)c1", "experimental_system": "MMP-13CD (catalytic domain of collagenase 3) (Homo sapiens, UniProt P45452)", "IC50 (nM)": 77}
{"molecule": "COc1ccc(CNC(=O)c2ccc(OC)c(C(=O)NCc3ccccc3)c2)cc1", "experimental_system": "MMP-13CD (catalytic domain of collagenase 3) (Homo sapiens, UniProt P45452)", "IC50 (nM)": 430}
{"molecule": "CCOCCNC(=O)c1ccc(OC)c(C(=O)NCc2ccc3c(c2)OCO3)c1", "experimental_system": "MMP-13CD (catalytic domain of collagenase 3) (Homo sapiens, UniProt P45452)", "IC50 (nM)": 5700}
{"molecule": "CC(=O)c1ccc(C(=O)OCc2ccccc2)cc1C(=O)OCc1ccccc1 [4-Acetyl-isophthalic acid dibenzyl ester]", "experimental_system": "MMP-13CD (catalytic domain of collagenase 3) (Homo sapiens, UniProt P45452)", "IC50 (nM)": 8200}

(1) COc1cccc(COC(=O)c2cccc(C(=O)OCc3cccc(OC)c3)c2)c1
(2) COC(=O)COc1ccc(C(=O)OCc2ccccc2)cc1C(=O)OCc1ccccc1
(3) O=C(NCc1ccc(F)cc1)c1cccc(C(=O)NCc2ccc(F)cc2)c1
(4) COc1cccc(CNC(=O)c2cccc(C(=O)NCc3ccc(Cl)cc3)c2)c1
(5) COc1ccc(C(=O)NCc2ccc3c(c2)OCO3)cc1C(=O)NCCOc1ccccc1
Task: Put the entries in order of IC50, starting with the largest number. // respond by listing labels in the order requested
Result: 2, 5, 3, 1, 4

(1) COc1ccc(CNC(=O)c2ccc(OC)c(C(=O)NCc3ccncc3)c2)cc1
(2) COc1ccc(C(=O)NCc2ccccc2)cc1C(=O)NCCOc1ccccc1
Task: From the items above, decide which of 1 and 2 has the lower IC50 reading. Your answer should be the label of the entry you select.
Result: 1

(P) COc1cccc(CNC(=O)c2cccc(C(=O)NCc3ccc(Cl)c(Cl)c3)c2)c1
(Q) O=C(NCc1cccc(Cl)c1)c1cccc(C(=O)NCc2cccc(Cl)c2)c1
(R) O=C(O)c1ccc(COC(=O)c2cccc(C(=O)NCc3ccc4c(c3)OCO4)c2)cc1
(S) COc1cccc(CNC(=O)c2cccc(C(=O)NCc3cccc(N)c3)c2)c1
(T) COc1ccc(C(=O)NCc2ccc(C)cc2)cc1C(=O)NCc1ccc(C)cc1
Task: Arrange items by their IC50 values in increasing order. // respond by listing labels in the order requested
Result: R, P, S, Q, T
(R: 33 nM, P: 555 nM, S: 935 nM, Q: 2300 nM, T: 7250 nM)

(P) COc1cccc(CNC(=O)c2cccc(C(=O)OCc3ccc(C(=O)O)cc3)c2)c1
(Q) O=C(NCc1ccncc1)c1cccc(C(=O)NCc2ccc(Cl)c(Cl)c2)c1
Task: Parameter check: reported IC50 is higher for which label, P or Q ? Your answer should be the label of the entry you select.
Result: Q
(Q: 2500 nM, P: 44 nM)
